Where do these numbers come from? They come from patent US9284303B2.

Form field: melting point (one value per entry).

Example entries begin here.
> print(dat)
                                   compound         observed
1  CC(C)(C)c1nc2cc(S(=O)(=O)c3cc(C(F)(F)F)ccn3)ccc2n1CC1CCOCC1 [Co. No. 105]  139.5 to 141 °C
2  Cc1oc(S(=O)(=O)c2ccc3c(c2)nc(C(C)(C)C)n3CC2CCOCC2)cc1S(C)(=O)=O [Co. No. 68]    204 to 205 °C
3  CC(C)(C)c1nc2cc(S(=O)(=O)c3coc(C(F)(F)F)c3)ccc2n1CC1CCOCC1 [Co. No. 106]  168 to 169.5 °C

Please turn your attention to the following entry.
Looking for the measured melting point of CC(C)(C)c1nc2cc(S(=O)(=O)c3ccc(S(C)(=O)=O)nc3)ccc2n1CC1CCOCC1 [Co. No. 56] , can you help?
150 to 160 °C
